- Species on record: Bos taurus
- Test description: Displacement of [3H]Ro15-1788 from GABAA receptor in bovine cerebral cortex membranes at 10 uM after 90 mins by liquid scintillation counting method relative to control
- Assay type: cell membranes
- Cond: Membrane
Attribute: inhibition
Endpoint label: inhibition

Test smiles: COc1ccc2cnc3c(C(=O)OCc4ccccc4OC)cnn3c2c1
Endpoint result: > 80%

Test smiles: COc1ccc2c(c1)-n1ncc(C(=O)OCc3ccccc3)c1NC2
Endpoint result: > 80%

Test smiles: O=C(OCc1ccccc1)c1cnn2c1ncc1ccccc12
Endpoint result: > 80%

Test smiles: COc1ccc2cnc3c(C(=O)OCc4ccccc4)cnn3c2c1
Endpoint result: > 80%

Test smiles: CCOC(=O)c1cnn2c1ncc1ccccc12
Endpoint result: > 80%

Test smiles: COc1ccc2c(c1)-n1ncc(C(=O)OCc3ccccc3OC)c1NC2
Endpoint result: > 80%

Test smiles: COc1ccc2cnc3c(C(=O)OC(C)C)cnn3c2c1
Endpoint result: > 80%

Test smiles: COc1ccc2cnc3c(C(=O)OCc4ccco4)cnn3c2c1
Endpoint result: > 80%

Test smiles: O=C(OCc1cccs1)c1cnn2c1ncc1ccccc12
Endpoint result: > 80%

Test smiles: COCCOc1ccc2cnc3c(C#N)cnn3c2c1
Endpoint result: 53%

Test smiles: CCOC(=O)c1cnn2c1[nH]c(=O)c1ccc(OC)cc12
Endpoint result: 2%

Test smiles: COc1ccc2cnc3c(C#N)cnn3c2c1
Endpoint result: > 80%

Test smiles: CCOC(=O)c1cnn2c1ncc1ccc(OC)cc12
Endpoint result: > 80%

Test smiles: COc1ccccc1COC(=O)c1cnn2c1ncc1ccccc12
Endpoint result: > 80%

Test smiles: CCOC(=O)c1cnn2c1NCc1ccc(OC)cc1-2
Endpoint result: > 80%

Test smiles: COc1ccc2cnc3c(C(=O)OCc4cccs4)cnn3c2c1
Endpoint result: > 80%

Test smiles: N#Cc1cnn2c1ncc1ccccc12
Endpoint result: 27%

* * *

# pKi listing for each entry below
- Test description: Displacement of [3H]Ro15-1788 from GABAA receptor in bovine cerebral cortex membranes after 90 mins by liquid scintillation counting method
- Type: cell membranes, Bos taurus, Membrane
pKi: −log10 of the molar value.

Compound: COc1ccc2cnc3c(C(=O)OCc4cccs4)cnn3c2c1
pKi: 7.78

Compound: CN1C(=O)CN=C(c2ccccc2)c2cc(Cl)ccc21 [DIAZEPAM]
pKi: 7.91

Compound: O=C(OCc1cccs1)c1cnn2c1ncc1ccccc12
pKi: 7.88

Compound: COc1ccc2cnc3c(C(=O)OC(C)C)cnn3c2c1
pKi: 7.01

Compound: COc1ccccc1COC(=O)c1cnn2c1ncc1ccccc12
pKi: 8.50

Compound: O=C(OCc1ccccc1)c1cnn2c1ncc1ccccc12
pKi: 7.59

Compound: COc1ccc2cnc3c(C(=O)OCc4ccco4)cnn3c2c1
pKi: 7.82

Compound: COc1ccc2cnc3c(C(=O)OCc4ccccc4)cnn3c2c1
pKi: 7.72

Compound: COc1ccc2c(c1)-n1ncc(C(=O)OCc3ccccc3)c1NC2
pKi: 7.47

Compound: COc1ccc2cnc3c(C#N)cnn3c2c1
pKi: 6.42

Compound: CCOC(=O)c1cnn2c1ncc1ccc(OC)cc12
pKi: 6.99

Compound: COc1ccc2cnc3c(C(=O)OCc4ccccc4OC)cnn3c2c1
pKi: 9.57

Compound: CCOC(=O)c1cnn2c1NCc1ccc(OC)cc1-2
pKi: 6.42

Compound: COc1ccc2c(c1)-n1ncc(C(=O)OCc3ccccc3OC)c1NC2
pKi: 7.80
